- Test system: C. elegans
- assay-protocol: Lifespan extension of nematodes (C. elegans)
- Assay type: in vivo
- condition-parameters: table of scaffold drawing 35; 50 micromolar; mean lifespan versus control
measured-parameter: Lifespan % (%)
Give bare numbers, in %.

c1ccc(P(c2ccccc2)c2ccccc2)cc1 [Compound 64]	19
Brc1ccc(N(c2ccc(Br)cc2)c2ccc(Br)cc2)cc1 [Compound 66]	19
Cc1ccc(P(c2ccc(C)cc2)c2ccc(C)cc2)cc1 [Compound 65]	42

Please go through the list and note Lifespan % for each compound.
1. O=P(c1ccc(O)cc1)(c1ccc(O)cc1)c1ccc(O)cc1 [Compound 61]
2. Oc1ccc(P(c2ccc(O)cc2)c2ccc(O)cc2)cc1 [Compound 60]
3. COc1ccc(P(c2ccc(OC)cc2)c2ccc(OC)cc2)cc1 [Compound 62]
4. COc1ccc(P(=O)(c2ccc(OC)cc2)c2ccc(OC)cc2)cc1 [Compound 63]

Reply:
1. 30
2. −2
3. 29
4. 0

---

Provide the reported Lifespan % of each item.
- Tested on: C. elegans
- assay-protocol: Lifespan extension of nematodes (C. elegans)
- Format: in vivo
- condition-parameters: table of scaffold drawing 36; 50 micromolar; mean lifespan versus control
Numbers only, in %.

CC(c1ccc(O)c([N+](=O)[O-])c1)(c1ccc(O)c([N+](=O)[O-])c1)c1ccc(O)c([N+](=O)[O-])c1	8
COc1c(Br)cc(C(C)(c2cc(Br)c(OC)c(Br)c2)c2cc(Br)c(OC)c(Br)c2)cc1Br	41
COc1ccc(C(C)(c2ccc(OC)c([N+](=O)[O-])c2)c2ccc(OC)c([N+](=O)[O-])c2)cc1[N+](=O)[O-]	4

Please go through the list and note Lifespan % for each compound.
1. CN1CCN(Cc2cc(C(C)(c3cc(CN4CCN(C)CC4)c(O)c(CN4CCN(C)CC4)c3)c3cc(CN4CCN(C)CC4)c(O)c(CN4CCN(C)CC4)c3)cc(CN3CCN(C)CC3)c2O)CC1
2. COc1c(I)cc(C(C)(c2cc(I)c(OC)c(I)c2)c2cc(I)c(OC)c(I)c2)cc1I
3. CC(c1ccc(O)c(Br)c1)(c1ccc(O)c(Br)c1)c1ccc(O)c(Br)c1
4. CCOCc1cc(C(C)(c2cc(COCC)c(O)c(COCC)c2)c2cc(COCC)c(O)c(COCC)c2)cc(COCC)c1O

Reply:
1: 36; 2: −7; 3: −5; 4: 16

Please go through the list and note Lifespan % for each compound.
1. CN(C)Cc1cc(C(C)(c2cc(CN(C)C)c(O)c(CN(C)C)c2)c2cc(CN(C)C)c(O)c(CN(C)C)c2)cc(CN(C)C)c1O
2. CC(c1cc(Br)c(O)c(Br)c1)(c1cc(Br)c(O)c(Br)c1)c1cc(Br)c(O)c(Br)c1

Reply:
43
13
